Data origin, for the record: PubChem BioAssay (NCI)

test system: HCC-2998 colon; test: NCI-60 one-dose screen, 48 h; details: 10 µM unless noted
This is part of a sample that, as a whole, favours compounds with a hit. Of some 83,000 tested, about 20% had one in any assay. Active and inactive are the calls of the source. How the source made its calls: active means growth percent below 10; inactive means the rest.
Output constraint: value belongs to yes for active, no for inactive

Answered cases to consult:
CN(C)CCOC(=O)Nc1ccc(Cc2ccc(NC(=O)OCCN(C)C)cc2)cc1 | no
Cc1cccc2ccccc12 | no
COc1ccc(-c2csc(NC(=O)Nc3nc(-c4ccc(OC)cc4)cs3)n2)cc1 | no
CCOC(=O)/C(O)=C(\C=N\C(=S)Nc1ccc(Cl)c(Cl)c1)C(=O)OCC | no
Clc1ccc(/C=C/c2ccccn2)cc1 | no
O=C(CCl)Oc1ccc([N+](=O)[O-])cc1 | no
C=C1SC(=Nc2c(C)cccc2C)N(c2nc(Cl)nc(Cl)n2)C12CCCCC2 | no
C/C(O)=C(/C=N/C(=S)Nc1ccccc1)C(=O)Nc1ccccc1C | no
Nc1cccc2cccc(O)c12 | no
Cc1ccc(N2C(=O)c3cccc4c(N)c(S(=O)(=O)O)cc(c34)C2=O)cc1 | no

Could you now consider this next compound?
Query block: Query: recorded result category for CCCCCCCCCCCCCCCCCCSC(=N)N in this test
Result block: no
